These entries and their values trace back to patent US9902716B2.

assayed.system: CDK9/CycT1 (Homo sapiens)
Construct: Recombinant full-length His-tagged human CDK9 and CycT1; His; purchased Invitrogen PV4131; host or cells: insect cells
Sequence (P50750 whole entry): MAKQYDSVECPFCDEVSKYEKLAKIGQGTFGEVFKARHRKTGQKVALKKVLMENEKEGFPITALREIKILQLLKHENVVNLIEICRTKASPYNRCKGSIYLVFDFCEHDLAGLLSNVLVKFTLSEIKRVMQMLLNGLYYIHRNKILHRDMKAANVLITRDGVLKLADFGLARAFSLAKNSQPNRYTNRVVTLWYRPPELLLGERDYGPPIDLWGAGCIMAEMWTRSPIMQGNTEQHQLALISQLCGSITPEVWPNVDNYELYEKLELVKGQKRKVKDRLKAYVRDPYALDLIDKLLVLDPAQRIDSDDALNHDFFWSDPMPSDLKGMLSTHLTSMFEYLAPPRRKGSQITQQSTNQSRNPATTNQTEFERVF
Sequence (O60563 whole entry partner): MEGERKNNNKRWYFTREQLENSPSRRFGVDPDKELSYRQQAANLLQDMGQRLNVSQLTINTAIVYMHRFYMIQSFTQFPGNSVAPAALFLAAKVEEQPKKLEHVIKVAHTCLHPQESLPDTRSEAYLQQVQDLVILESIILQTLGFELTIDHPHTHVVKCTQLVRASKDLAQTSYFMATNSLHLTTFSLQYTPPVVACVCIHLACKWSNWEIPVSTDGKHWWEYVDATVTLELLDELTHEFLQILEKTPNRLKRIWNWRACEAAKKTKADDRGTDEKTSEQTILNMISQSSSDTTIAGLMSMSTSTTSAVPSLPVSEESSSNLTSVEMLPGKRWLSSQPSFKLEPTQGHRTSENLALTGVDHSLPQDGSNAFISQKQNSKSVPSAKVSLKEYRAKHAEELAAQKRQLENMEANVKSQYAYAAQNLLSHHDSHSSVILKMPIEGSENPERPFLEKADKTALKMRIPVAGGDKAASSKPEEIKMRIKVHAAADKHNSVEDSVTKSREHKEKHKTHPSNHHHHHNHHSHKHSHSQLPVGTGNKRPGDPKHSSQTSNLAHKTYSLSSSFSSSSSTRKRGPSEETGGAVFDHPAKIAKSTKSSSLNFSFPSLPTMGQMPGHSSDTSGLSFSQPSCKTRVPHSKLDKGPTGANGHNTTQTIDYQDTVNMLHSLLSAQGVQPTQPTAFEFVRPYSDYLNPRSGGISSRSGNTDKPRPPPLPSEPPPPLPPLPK
assay.overview: CDK9/CycT1 high ATP kinase assay (Method 1b, TR-FRET)
Type: biochemical
conditions.used: Method 1b, 2 mM ATP
Description: 1b. CDK9/CycT1 High ATP Kinase Assay CDK9/CycT1-inhibitory activity of compounds of the present invention at a high ATP concentration after preincubation of enzyme and test compounds was quantified employing the CDK9/CycT1 TR-FRET assay as described in the following paragraphs. Recombinant full-length His-tagged human CDK9 and CycT1, expressed in insect cells and purified by Ni-NTA affinity chromatography, were purchase from Invitrogen (Cat. No PV4131). […]
reported.property: IC50 (nM)

# chemical.structure, unit.string, reported.result
measured = [
    ("CS(=O)(=O)Cc1cccc(Nc2ncc(F)c(-c3ccc(F)c4ccoc34)n2)c1", "nM", 9),
]

a = Cc1cc(CS(C)(=O)=O)cc(Nc2ncc(F)c(-c3ccc(F)c4ccoc34)n2)c1
b = CCS(=O)(=O)Cc1cccc(Nc2ncc(F)c(-c3ccc(F)c4ccoc34)n2)c1
c = CS(=O)(=O)Cc1cc(F)cc(Nc2ncc(F)c(-c3ccc(F)c4ccoc34)n2)c1
Problem: Order by IC50, ascending. Use the labels to give the ranking in the order requested.
Solution: a, c, b
(a: 1 nM, c: 2 nM, b: 9 nM)
